# target_under_test: Akt1 kinase (Homo sapiens)
# Construct: a middle T tag was added to the 5′ end of the full length Akt1 gene; biotin tag (from pS2neo vector); made in house; host or cells: Drosophila S2 cells
# Sequence (P31749 whole entry): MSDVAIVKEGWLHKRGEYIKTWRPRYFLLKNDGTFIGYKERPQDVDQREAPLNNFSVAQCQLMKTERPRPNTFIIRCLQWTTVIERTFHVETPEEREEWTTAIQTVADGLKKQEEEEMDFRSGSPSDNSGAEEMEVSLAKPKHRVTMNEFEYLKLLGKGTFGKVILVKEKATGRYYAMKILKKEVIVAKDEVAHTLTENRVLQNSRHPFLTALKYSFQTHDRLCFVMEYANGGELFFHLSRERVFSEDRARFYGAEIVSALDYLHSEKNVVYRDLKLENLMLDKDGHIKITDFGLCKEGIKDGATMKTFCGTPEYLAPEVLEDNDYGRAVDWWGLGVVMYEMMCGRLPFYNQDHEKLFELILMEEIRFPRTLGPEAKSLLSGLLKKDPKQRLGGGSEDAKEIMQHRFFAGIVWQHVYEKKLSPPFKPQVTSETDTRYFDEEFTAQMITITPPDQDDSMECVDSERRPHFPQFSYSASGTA
# assay_method_text: Akt kinase assay (HTRF, GSK-derived biotinylated peptide substrate)
# Format: biochemical
# experimental_setup: activated Akt1 kinase
assay_metric: log10(IC50) (log10 of the value in nM)
Scale: decimal log of IC50, IC50 in nM.

Solved cases below.
N[C@]1(c2ccc(-c3nc4ccn5c(-c6ncccn6)nnc5c4cc3-c3ccccc3)cc2)C[C@](O)(C2CC2)C1 | -0.52
Cc1nc(-c2nnc3c4cc(-c5ccccc5)c(-c5ccc(C6(N)CC(F)(F)C6)cc5)nc4ccn23)n[nH]1 | 0.67
C[C@]1(O)C[C@@](N)(c2ccc(-c3nc4ccc5nnc(-c6cccnc6)n5c4nc3-c3ccccc3)cc2)C1 | -0.40
NC1(c2ccc(-c3nc4ccc5nnc(CCC(F)(F)F)n5c4nc3-c3ccccc3)cc2)CC(O)(C2CC2)C1 (stereo not drawn) | -0.30

Q: Tell me log10(IC50) of "NC1(c2ccc(-c3nc4ccn5c(-c6ncccn6)nnc5c4cc3-c3ccccc3)cc2)CC(F)(F)C1" when tested on Akt1 kinase (Homo sapiens).
Result: 0.78

Q: Tell me log10(IC50) of "N[C@]1(c2ccc(-c3nc4ccc5nnc(-c6ccc(O)cc6)n5c4nc3-c3ccccc3)cc2)C[C@](O)(C2CC2)C1" when tested on Akt1 kinase (Homo sapiens).
Result: -0.52

###

Below, each entry is listed alongside its reported IC50.
# target_under_test: Akt2 kinase (Homo sapiens, UniProt P31751)
# Construct: a middle T tag was added to the 5′ end of the full length Akt2 using the PCR primer; biotin tag (from pS2neo vector); made in house; host or cells: Drosophila S2 cells
# Sequence (P31751 whole entry): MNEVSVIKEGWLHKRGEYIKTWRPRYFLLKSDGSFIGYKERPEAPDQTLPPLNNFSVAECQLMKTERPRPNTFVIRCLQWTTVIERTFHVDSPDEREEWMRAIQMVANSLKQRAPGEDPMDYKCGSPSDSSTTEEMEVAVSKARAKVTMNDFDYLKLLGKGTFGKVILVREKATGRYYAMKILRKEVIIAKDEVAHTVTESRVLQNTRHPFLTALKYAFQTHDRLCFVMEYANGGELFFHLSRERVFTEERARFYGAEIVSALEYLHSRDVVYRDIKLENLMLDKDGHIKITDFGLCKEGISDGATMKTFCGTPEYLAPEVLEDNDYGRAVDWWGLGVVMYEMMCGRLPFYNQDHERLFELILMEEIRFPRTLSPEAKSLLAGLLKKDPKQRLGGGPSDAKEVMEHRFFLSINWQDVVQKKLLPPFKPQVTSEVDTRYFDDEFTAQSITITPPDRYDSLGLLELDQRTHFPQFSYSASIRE
# assay_method_text: Akt kinase assay (HTRF, GSK-derived biotinylated peptide substrate)
# Assay type: biochemical
# experimental_setup: activated Akt2 kinase
Please reply with the bare figure in nM and do not write the unit itself.

NC1(c2ccc(-c3nc4ccc5nnc(CCC(F)(F)F)n5c4nc3-c3ccccc3)cc2)CC(O)(C2CC2)C1 (stereo not drawn) [EXAMPLE 3-20] | 6.3
NC1(c2ccc(-c3nc4ccn5c(-c6ncccn6)nnc5c4cc3-c3ccccc3)cc2)CC(F)(F)C1 [EXAMPLE 2-10] | 44.4
N[C@]1(c2ccc(-c3nc4ccc5nnc(-c6ccc(O)cc6)n5c4nc3-c3ccccc3)cc2)C[C@](O)(C2CC2)C1 [EXAMPLE 3-14] | 11
N[C@]1(c2ccc(-c3nc4ccn5c(-c6ncccn6)nnc5c4cc3-c3ccccc3)cc2)C[C@](O)(C2CC2)C1 [EXAMPLE 2-14] | 4
C[C@]1(O)C[C@@](N)(c2ccc(-c3nc4ccc5nnc(-c6cccnc6)n5c4nc3-c3ccccc3)cc2)C1 [EXAMPLE 3-7] | 4

# evaluate next
Q: Please report the measured IC50 for Cc1nc(-c2nnc3c4cc(-c5ccccc5)c(-c5ccc(C6(N)CC(F)(F)C6)cc5)nc4ccn23)n[nH]1 [EXAMPLE 5-16]
Result: 84.3
